Listing: log10 of MEC of selected molecules
Biological target: Toll-like receptor 7 (Homo sapiens)
Sequence (whole entry): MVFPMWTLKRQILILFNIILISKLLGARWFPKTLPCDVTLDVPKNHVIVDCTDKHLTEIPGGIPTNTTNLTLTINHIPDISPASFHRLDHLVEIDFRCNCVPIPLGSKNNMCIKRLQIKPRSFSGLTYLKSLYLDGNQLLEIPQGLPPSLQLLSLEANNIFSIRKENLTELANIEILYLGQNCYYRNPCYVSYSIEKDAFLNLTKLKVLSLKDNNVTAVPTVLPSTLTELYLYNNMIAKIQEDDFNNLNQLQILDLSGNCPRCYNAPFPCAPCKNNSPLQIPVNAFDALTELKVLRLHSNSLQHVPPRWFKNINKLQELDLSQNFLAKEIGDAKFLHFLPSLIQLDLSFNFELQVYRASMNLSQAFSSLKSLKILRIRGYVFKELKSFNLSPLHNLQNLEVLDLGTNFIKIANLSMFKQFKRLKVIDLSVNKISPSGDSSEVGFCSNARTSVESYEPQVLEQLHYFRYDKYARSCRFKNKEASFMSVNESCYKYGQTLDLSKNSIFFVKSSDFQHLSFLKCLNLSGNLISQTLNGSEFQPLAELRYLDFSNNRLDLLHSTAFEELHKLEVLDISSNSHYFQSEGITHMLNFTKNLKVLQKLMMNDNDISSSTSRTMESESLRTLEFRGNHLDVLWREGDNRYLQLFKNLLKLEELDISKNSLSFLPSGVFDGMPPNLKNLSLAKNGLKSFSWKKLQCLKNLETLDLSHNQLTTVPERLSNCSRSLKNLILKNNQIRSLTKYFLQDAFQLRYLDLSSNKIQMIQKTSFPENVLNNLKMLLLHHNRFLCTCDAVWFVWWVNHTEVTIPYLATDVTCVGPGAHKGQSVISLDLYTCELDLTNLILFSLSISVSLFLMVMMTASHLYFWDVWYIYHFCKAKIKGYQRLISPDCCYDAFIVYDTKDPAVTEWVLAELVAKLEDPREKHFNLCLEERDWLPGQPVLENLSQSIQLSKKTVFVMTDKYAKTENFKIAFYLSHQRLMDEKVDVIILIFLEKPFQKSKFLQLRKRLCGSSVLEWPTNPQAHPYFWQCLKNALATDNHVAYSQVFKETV
Assay: Agonist activity at TLR7 in human PBMC assessed as suppression of HCV replicon replication in human HuH7 luc/neo cells harboring RNA encoding bicistronic expression construct comprising wild type HCV type 1b NS3-NS5B regions exposed to conditioned media from compound treated PBMCs after 24 hrs by luciferase reporter gene assay
Format: cell-based
Units before log transform: µM; reported quantity: MEC; transform: log10.

> print(dat)
                         smilesnotation                          studysystem  experimentalresult
1   CCC[C@@H](CCO)Nc1nc(N)nc2ccc(C)cc12  Toll-like receptor 7 (Homo sapiens)               -0.41
2                CCCCNc1nc(N)nc2ccccc12  Toll-like receptor 7 (Homo sapiens)               -1.52
3  CCCC[C@@H](CCO)Nc1nc(N)nc2ccc(C)cc12  Toll-like receptor 7 (Homo sapiens)               -0.85
4  CCCC[C@@H](CCO)Nc1nc(N)nc2cc(F)ccc12  Toll-like receptor 7 (Homo sapiens)               -1.40
5       CCCC[C@H](CO)Nc1nc(N)nc2ccccc12  Toll-like receptor 7 (Homo sapiens)               -0.80
6  CCCC[C@@H](CCO)Nc1nc(N)nc2ccc(F)cc12  Toll-like receptor 7 (Homo sapiens)               -0.43

Consider the additional molecule presented here.
// log10 of MEC value for CCCC[C@@H](CCO)Nc1nc(N)nc2ccccc12 : -1.70

* * *

assay: AUC (0 to last) in cynomolgus monkey plasma at 3 mg/kg, po by LC-MS analysis; type: ADME, organism-based, Macaca fascicularis; set-up: dose 3 mg/kg, time 0 - last, route oral
parameter: AUC(0-t) (ng·h/mL)
// units = ng·h/mL; emit number, no label

// AUC(0-t) value for CCC[C@@H](CCO)Nc1nc(N)nc2c(F)cccc12 : 383

* * *

experiment: Cmax in C57BL/6J mouse liver at 10 mg/kg, po by LC-MS analysis; type: ADME, organism-based; parameters: dose 10 mg/kg, route oral
parameter: Cmax
# answer = value followed by unit

// Cmax value for CCC[C@@H](CCO)Nc1nc(N)nc2c(F)cccc12 : 1420 ng/g

* * *

Below are IC50 values recorded for Cytochrome P450 2D6 (Homo sapiens, UniProt P10635).
// units = µM; emit number, no label

> print(dat)
                        smilesnotation  parameter  unittag  experimentalresult
1  CCC[C@@H](CCO)Nc1nc(N)nc2c(F)cccc12       IC50       µM                 5.7

The compound CCC[C@@H](CCO)Nc1nc(N)nc2cc(OC)ccc12 , when measured on Cytochrome P450 2D6 (Homo sapiens, UniProt P10635), yielded IC50 of 0.6

* * *

experiment: Protein binding in rat plasma fraction at 5 uM after 4.5 hrs LC-MS/MS-based rapid equilibrium dialysis method; type: ADME, cell-free; conditions: read-out: PPB (converted)
parameter: fraction unbound at 4.5 h, 5 µM
# answer = number (no unit)

// fraction unbound at 4.5 h, 5 µM value for CCC[C@@H](CCO)Nc1nc(N)nc2c(F)cccc12 : 0.47

* * *

biological target: Voltage-gated inwardly rectifying potassium channel KCNH2 (Homo sapiens, UniProt Q12809); assay: Inhibition of radioligand binding to human ERG expressed in HEK293 cell membranes by scintillation counting method
Sequence (Q12809 whole entry): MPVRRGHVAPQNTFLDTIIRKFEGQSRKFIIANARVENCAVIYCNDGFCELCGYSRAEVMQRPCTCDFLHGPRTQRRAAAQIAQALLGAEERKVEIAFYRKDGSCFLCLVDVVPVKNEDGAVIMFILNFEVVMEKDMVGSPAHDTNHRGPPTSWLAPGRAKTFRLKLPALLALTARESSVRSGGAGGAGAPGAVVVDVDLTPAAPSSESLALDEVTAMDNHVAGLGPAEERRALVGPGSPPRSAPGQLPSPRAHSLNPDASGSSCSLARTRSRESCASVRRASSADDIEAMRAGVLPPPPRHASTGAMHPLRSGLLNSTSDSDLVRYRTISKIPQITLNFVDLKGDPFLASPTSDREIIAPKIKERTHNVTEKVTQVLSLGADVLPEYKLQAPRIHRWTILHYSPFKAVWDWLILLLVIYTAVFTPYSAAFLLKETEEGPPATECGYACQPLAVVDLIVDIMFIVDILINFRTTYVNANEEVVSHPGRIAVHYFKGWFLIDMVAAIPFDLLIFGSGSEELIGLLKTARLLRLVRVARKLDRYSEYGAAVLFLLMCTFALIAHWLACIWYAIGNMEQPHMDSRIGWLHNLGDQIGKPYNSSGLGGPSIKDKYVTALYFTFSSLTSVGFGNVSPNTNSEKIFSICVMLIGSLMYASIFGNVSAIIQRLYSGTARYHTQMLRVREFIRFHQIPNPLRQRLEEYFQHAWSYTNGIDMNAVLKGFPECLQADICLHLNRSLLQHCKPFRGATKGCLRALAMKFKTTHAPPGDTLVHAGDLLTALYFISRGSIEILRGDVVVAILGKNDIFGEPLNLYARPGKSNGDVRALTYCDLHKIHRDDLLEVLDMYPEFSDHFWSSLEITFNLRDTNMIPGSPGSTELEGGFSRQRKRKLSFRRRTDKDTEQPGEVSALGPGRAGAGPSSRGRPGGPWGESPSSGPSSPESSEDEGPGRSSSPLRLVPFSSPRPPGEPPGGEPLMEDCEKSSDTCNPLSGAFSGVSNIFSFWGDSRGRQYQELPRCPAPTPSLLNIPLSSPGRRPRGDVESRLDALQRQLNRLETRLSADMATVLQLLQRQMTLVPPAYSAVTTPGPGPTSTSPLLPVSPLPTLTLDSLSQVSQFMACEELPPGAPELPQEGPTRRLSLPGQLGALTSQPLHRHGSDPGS
parameter: pIC50
pIC50 field: float, defined as -log10 of concentration (mol/L).

// below: answered molecules
> print(dat)
                        smilesnotation                               studysystem  experimentalresult
1  CCC[C@@H](CCO)Nc1nc(N)nc2cccc(C)c12  Voltage-gated inwardly rectifying potassium channel KCNH2 (Homo sapiens, UniProt Q12809)                5.26
2    CCCC[C@@H](CCO)Nc1nc(N)nc2ccccc12  Voltage-gated inwardly rectifying potassium channel KCNH2 (Homo sapiens, UniProt Q12809)                5.57

// pIC50 value for CCCC[C@@H](CCO)Nc1nc(N)nc2ccc(C)cc12 : 5.27

// pIC50 value for CCC[C@@H](CCO)Nc1nc(N)nc2cc(C)ccc12 : 5.09

// pIC50 value for CCCC[C@@H](CCO)Nc1nc(N)nc2ccc(F)cc12 : 5.24

// pIC50 value for CCC[C@@H](CCO)Nc1nc(N)nc2cc(F)ccc12 : 5.04

* * *

Target: Toll-like receptor 7 (Homo sapiens) (UniProt Q9NYK1)
Sequence (whole entry): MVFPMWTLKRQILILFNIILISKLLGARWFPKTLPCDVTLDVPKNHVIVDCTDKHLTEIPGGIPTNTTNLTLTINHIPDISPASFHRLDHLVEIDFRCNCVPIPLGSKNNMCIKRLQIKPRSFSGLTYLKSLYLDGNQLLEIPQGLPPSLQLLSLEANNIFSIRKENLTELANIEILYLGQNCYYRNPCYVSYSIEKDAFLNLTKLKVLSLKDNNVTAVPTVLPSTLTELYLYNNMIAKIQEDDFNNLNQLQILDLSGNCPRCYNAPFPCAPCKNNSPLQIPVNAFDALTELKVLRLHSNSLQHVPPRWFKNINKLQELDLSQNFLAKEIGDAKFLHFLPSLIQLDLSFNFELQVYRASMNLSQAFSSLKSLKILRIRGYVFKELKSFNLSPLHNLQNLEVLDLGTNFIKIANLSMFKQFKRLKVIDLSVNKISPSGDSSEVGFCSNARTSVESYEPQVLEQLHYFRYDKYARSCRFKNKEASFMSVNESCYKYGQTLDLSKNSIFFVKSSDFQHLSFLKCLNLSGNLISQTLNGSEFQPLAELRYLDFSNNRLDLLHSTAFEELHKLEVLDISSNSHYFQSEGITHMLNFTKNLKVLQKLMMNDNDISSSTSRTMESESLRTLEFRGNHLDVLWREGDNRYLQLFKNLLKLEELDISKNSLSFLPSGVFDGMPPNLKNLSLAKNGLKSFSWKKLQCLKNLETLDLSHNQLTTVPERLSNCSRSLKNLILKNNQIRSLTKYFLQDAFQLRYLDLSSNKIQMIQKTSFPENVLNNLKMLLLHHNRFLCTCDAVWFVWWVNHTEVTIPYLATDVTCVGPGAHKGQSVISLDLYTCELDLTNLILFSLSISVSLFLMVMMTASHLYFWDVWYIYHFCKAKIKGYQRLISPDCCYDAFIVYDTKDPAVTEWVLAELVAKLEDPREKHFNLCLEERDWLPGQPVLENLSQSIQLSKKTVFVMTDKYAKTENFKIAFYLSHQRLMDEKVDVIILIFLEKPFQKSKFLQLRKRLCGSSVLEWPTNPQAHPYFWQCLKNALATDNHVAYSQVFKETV
Test: Agonist activity at human TLR7 expressed in HEK293 cells assessed as induction of receptor activation incubated for 6 hrs by NF-kappaB-luciferase reporter gene assay
Type: cell-based
Kindly return 1.0 if reported MEC is no lower than 0.5 µM; return 0.0 if it is lower.

stdin: Is MEC at least 0.5 µM? Consider CCC[C@@H](CCO)Nc1nc(N)nc2ccc(C)cc12
stdout: 1.0

stdin: Is MEC at least 0.5 µM? Consider CCCC[C@@H](CCO)Nc1nc(N)nc2cc(F)ccc12
stdout: 0.0

stdin: Is MEC at least 0.5 µM? Consider CC[C@@H](CO)Nc1nc(N)nc2ccccc12
stdout: 1.0

stdin: Is MEC at least 0.5 µM? Consider CCCC[C@@H](CCO)Nc1nc(N)nc2cc(C)ccc12
stdout: 0.0

stdin: Is MEC at least 0.5 µM? Consider CCCC[C@@H](CCO)Nc1nc(N)nc2ccccc12
stdout: 0.0

stdin: Is MEC at least 0.5 µM? Consider CCC[C@@H](CCO)Nc1nc(N)nc2c(F)cccc12
stdout: 0.0

stdin: Is MEC at least 0.5 µM? Consider CCC[C@@H](CCO)Nc1nc(N)nc2cc(F)ccc12
stdout: 0.0

stdin: Is MEC at least 0.5 µM? Consider CCCCNc1nc(N)nc2ccccc12
stdout: 0.0

stdin: Is MEC at least 0.5 µM? Consider CCC[C@@H](CCO)Nc1nc(N)nc2ccc(OC)cc12
stdout: 1.0

stdin: Is MEC at least 0.5 µM? Consider CCCC[C@@H](CCO)Nc1nc(N)nc2cccc(C)c12
stdout: 0.0

stdin: Is MEC at least 0.5 µM? Consider CC(C)C[C@@H](CO)Nc1nc(N)nc2ccccc12
stdout: 1.0

stdin: Is MEC at least 0.5 µM? Consider CCC[C@H](CO)Nc1nc(N)nc2ccccc12
stdout: 1.0

stdin: Is MEC at least 0.5 µM? Consider CCCC[C@@H](CO)Nc1nc(N)nc2ccccc12
stdout: 0.0
